assay: in vivo; conditions: Sprague-Dawley, rat, po, 0.3 mg/kg
measured_property: Tmax (h)
Give the value, in units of h, as a plain number.

smiles_text | unit_spec | Tmax
CC(C)C(=O)N1CCC(NC(=O)Nc2ccc(OC(F)(F)F)cc2)CC1 | h | 1
CC(C)C(=O)N1CCC(NC(=O)Nc2ccc(C(F)(F)F)cc2)CC1 | h | 4
CC[C@H](C)C(=O)N1CCC(NC(=O)Nc2ccc(OC(F)(F)F)cc2)CC1 | h | 4

Could you now consider this next compound?
Task: Quickly give me recorded Tmax for "CC[C@H](C)C(=O)N1CCC(NC(=O)Nc2ccc(C(F)(F)F)cc2)CC1"
Result: 1
